# System: Plasmodium falciparum
# procedure text: MMV: Compounds (1uM) were screened in a 72hr growth assay monitored by flow cytometry both in the presence and absence of supplemental isopentenyl pyrophosphate (IPP) 200uM. Compounds which fail to show anti-malarial activity when chemically rescued by IPP are therefore specific to the apicoplast. The values are expressed as the ratio of the corresponding activity with and without IPP, respectively.
# Format: functional, W2
Reported Ratio values follow for various compounds

compound | Ratio
O=C(CCl)NCCOc1ccc(Cl)cc1Cl | 1.041
Oc1ccccc1CN1CCC2(CCCN(Cc3ccccc3F)C2)C1 (centres undefined) | 0.9661
Cc1ccc(C2CC(C(F)(F)F)n3nc(C(=O)N4CCN(C(c5ccccc5)c5ccccc5)CC4)cc3N2)cc1 (centres undefined) | 0.725
COC(=O)c1ccc(Cl)c2c1C1C=CCC1C(c1cccc3ccccc13)N2 (centres undefined) | 1.081
CCc1ccc(CNCC(O)c2ccccc2)cc1.Cl (centres undefined) | 1.061
CN(C)CCCNCc1ccc(-c2ccc(F)c(Cl)c2)o1.Cl | 0.75
CCOC(=O)c1ccc2nc(-c3ccccc3)cc(O)c2c1 | 0.3465
O=C(Nc1ccc(Cl)c(Cl)c1)Nc1ccc(Cl)c(Cl)c1 | 1.022
CC(C)(C)C(=O)Nc1ccc(C(=O)Nc2cccc(-c3nc4ccccc4[nH]3)c2)cc1 | 0.7684
Cc1ccc(N2C3c4ccccc4N(S(=O)(=O)c4ccc(C)cc4)C2c2ccccc2N3S(=O)(=O)c2ccc(C)cc2)cc1 | 0.3473
O=C1c2ccc3c4c(ccc(c24)C(=O)N1CCCCO)C(=O)N(CCCCO)C3=O | 1.047
O=C(Nc1cccc(C2=NCCN2)c1)Nc1cccc(C2=NCCN2)c1 | 1
Cc1ccc(OCCCCCCNCCO)c(C)c1 | 0.8556
COc1ccc(C2NCCc3c2[nH]c2ccccc32)cc1CN1CCN(c2ccc(F)cc2)CC1.Cl (centres undefined) | 0.8727
COc1ccc(C(=O)C2CC2c2ccc(Cl)cc2)cc1 (centres undefined) | 1.308
CCOc1ccc(-n2cc(-c3ccccc3)c3c(SCc4cc(C)ccc4C)ncnc32)cc1 | 0.9394
CCN(CC)CCNc1ccnc2cc3ccccc3cc12.O=P(O)(O)O | 1.056
CCOC(=O)c1cnc2ccc(OC)cc2c1Nc1ccc(N2CCN(C)CC2)cc1 | 0.9667
Cc1ccnc(NC(c2cccc(OCc3ccccc3)c2)c2ccc3cccnc3c2O)c1 (centres undefined) | 1.558
CCCCCCc1cc(O)c2c3c(c(=O)oc2c1)CCC(C)C3 (centres undefined) | 1.073
COc1ccc(-c2nonc2NC(=O)c2cccc(Cl)c2)cc1OC | 0.9
COc1ccc(-c2nc(N3CCN(C(=O)C4CCCCC4)CC3)c3c4c(sc3n2)CCCC4)cc1 | 1.015
O=C(NCC(c1ccsc1)N1CCCCCC1)c1ccc(C(F)(F)F)cc1 (centres undefined) | 0.9077
CN(C)c1ccc(C(O)(c2ccc(N(C)C)cc2)c2ccc(N(C)C)cc2)cc1 | 1.127
Cn1c(C(=O)c2cccc3ccccc23)nc2ccccc21 | 0.8689
O=C(NC(c1ccccc1)c1ccc2cccnc2c1O)c1ccccc1 (centres undefined) | 1.018
COc1ccc(/C=C2/SC(=Nc3ccccc3)NC2=O)cc1 | 1.136
CCCc1c(C)nc2ccc(Br)cc2c1O | 1
CCOc1ccc2c(c1)CN(Cc1ccc(Cl)cc1)CO2 | 0.8361
O=C(CCc1ccco1)NC1CCN(CC2(c3ccc(Cl)cc3)CCC2)CC1 | 0.875
CC(C)c1ccc(CNCC(O)c2ccccc2)cc1.Cl (centres undefined) | 0.9296
COCCNC(=O)c1ccc(OC2CCN(Cc3ccc(F)c(F)c3)CC2)c(Cl)c1 | 1.063
O=C1c2ccccc2-c2nnc(-c3ccc(Br)cc3)cc21 | 0.8889
O=C(Nc1ccc(-c2nc3cc4ccccc4cc3[nH]2)cc1)c1cccc(Br)c1 | 1.254
O=C1c2ccccc2C2=Nc3ccccc3SC(c3cccc(F)c3)C12 (centres undefined) | 0.8676
Cc1ccc(C(=O)c2oc3ccc4c(C)cc(=O)oc4c3c2C)cc1 | 1.018
Cc1ccc(Nc2nc(NCCO)c3ccccc3n2)cc1C | 0.8028
Oc1ccc(-c2nc(-c3ccc4oc5ccc(-c6[nH]c(-c7ccc(O)cc7)nc6-c6ccccc6)cc5c4c3)c(-c3ccccc3)[nH]2)cc1 | 0.8182
CC1CC(C)CN(C(=O)c2ccc(Cl)cc2Cl)C1 (centres undefined) | 0.6364
O=c1nc(C=Cc2ccc(Cl)cc2)oc2ccccc12 | 0.9697
COc1ccc(C=C2SC(=N)N(c3ccccc3OC)C2=O)cc1 | 0.8861
O=C(NNc1cc(N2CCCC2)nc(N2CCCC2)n1)c1ccccc1 | 0.9508
Cl.Clc1cc(Br)ccc1-c1ccc(CNCC2CCNCC2)o1 | 1.173
c1ccc(-c2ccc(-c3nc4ccccc4[nH]3)cc2)cc1 | 1.5

---

Reported Ratio values follow for various compounds
# Tested on: Plasmodium falciparum
# procedure text: MMV: Compounds (1uM) were screened in a 72hr growth assay monitored by flow cytometry both in the presence and absence of supplemental isopentenyl pyrophosphate (IPP) 200uM. Compounds which fail to show anti-malarial activity when chemically rescued by IPP are therefore specific to the apicoplast. The values are expressed as the ratio of the corresponding activity with and without IPP, respectively.
# Assay type: functional, W2

compound | Ratio
CCc1ccc(Nc2cc(C)c3ccc(O)cc3n2)cc1.Cl | 0.7867
OC1CCCCC1C1(NC(=S)Nc2ccccc2)CCCCC1 (stereo unspecified) | 0.9298
CC(C)CNC(=O)c1c(N)n(CCc2ccccc2F)c2nc3ccccc3nc12 | 0.63
COc1ccc(C2c3ccc4ccccc4c3Oc3ncn(CCCn4ccnc4)c(=N)c32)cc1OC (stereo unspecified) | 1.051
CCC(O)c1ccc(Br)cc1NC(=O)c1cccc(Cl)c1 (stereo unspecified) | 1
CCOc1cc(Cl)c(C(C)NC(=O)c2cccc(OC)c2)cc1OCC (stereo unspecified) | 0.9259

---

# Test system: Plasmodium falciparum
# procedure text: MMV: Compounds (1uM) were screened in a 72hr growth assay monitored by flow cytometry both in the presence and absence of supplemental isopentenyl pyrophosphate (IPP) 200uM. Compounds which fail to show anti-malarial activity when chemically rescued by IPP are therefore specific to the apicoplast. The values are expressed as the ratio of the corresponding activity with and without IPP, respectively.
# Assay type: functional, W2
Use Satisfied when the recorded Ratio is no lower than 1; use Not satisfied when it is lower.

compound | class label
CCN(CC)CCCNc1ccnc2cc3ccccc3cc12 | Not satisfied
CCOc1cccc(C(=O)Nc2ccc(-c3nc4ccccc4[nH]3)cc2)c1 | Satisfied
Oc1c2c(nc3cc(-c4ccccc4)nn13)CCCC2 | Not satisfied
CCCCCCOC(=O)C1=C(C)NC(=O)NC1c1ccccc1F (stereo unspecified) | Not satisfied
Oc1ccc(Cl)cc1CNc1nc2ccccc2[nH]1 | Satisfied
CCN(CC)c1cc(C)c2cc(NC(=O)c3cccc(OC)c3)ccc2n1 | Satisfied
O=C(Nc1ccc(F)c(Cl)c1)Nc1ccc(Cl)c(Cl)c1 | Satisfied
COc1cc2cc(C(=O)Nc3ccccc3)c(N)nc2cc1OC | Satisfied
CCOc1ccc(CCNC(=O)c2cccs2)cc1OCC | Satisfied

---

# System: Plasmodium falciparum
# procedure text: MMV: Compounds (1uM) were screened in a 72hr growth assay monitored by flow cytometry both in the presence and absence of supplemental isopentenyl pyrophosphate (IPP) 200uM. Compounds which fail to show anti-malarial activity when chemically rescued by IPP are therefore specific to the apicoplast. The values are expressed as the ratio of the corresponding activity with and without IPP, respectively.
# Assay type: functional, W2

molecule | Ratio
COc1ccc(C(=O)NC(c2ccc(Cl)cc2Cl)c2cc(Cl)c3cccnc3c2O)cc1 (stereo not given) | 0.9814
CCCC(c1nnnn1C1CCCCC1)N1CCN(C(=O)c2ccco2)CC1.Cl (stereo not given) | 1.023
CN(C)CCNc1cc(-c2ccccc2)nc2ccccc12 | 1.015
Cc1cccc(N2C(=O)C3C(C2=O)C2(c4ccccc4)C(=O)C3(c3ccccc3)C(c3ccc4c(c3)OCO4)=C2c2ccc3c(c2)OCO3)c1 (stereo not given) | 0.9857
CCCCCCn1c(=N)n(CC(O)COc2cccc(C)c2)c2ccccc21.Cl (stereo not given) | 0.9831

---

# Test system: Plasmodium falciparum
# procedure text: MMV: Compounds (1uM) were screened in a 72hr growth assay monitored by flow cytometry both in the presence and absence of supplemental isopentenyl pyrophosphate (IPP) 200uM. Compounds which fail to show anti-malarial activity when chemically rescued by IPP are therefore specific to the apicoplast. The values are expressed as the ratio of the corresponding activity with and without IPP, respectively.
# Assay type: functional, W2
Label true (1) when Ratio is strictly below 1; otherwise label false (0).

molecule | class label
Cc1nc2ccccc2c(O)c1CC=C(Cl)Cl | false (0)
O=C(Nc1ccc(Cl)cc1)N1CCN(c2ccc3nncn3n2)CC1 | true (1)
CCc1c(C)c(=N)c2ccccc2n1C.I | false (0)
CCOC(=O)c1cn(CC)c2cc(N(C)CCc3ccc(OC)c(OC)c3)c(F)cc2c1=O | true (1)
CC(=O)c1sc(NC(=O)Nc2ccc(C)cc2C)nc1C | true (1)
O=C(O)C1Cc2c([nH]c3ccccc23)C(c2ccc(Cl)cc2Cl)N1 (stereo not drawn) | false (0)
CCOc1ccc(Nc2ccnc3cc(Cl)ccc23)cc1 | true (1)
